# target_of_assay: T1, PSMA Fab
# T1 construct: also called Anti-PSMA Fab; 006 PSMA Fab
# experiment_description: phage binding ELISA; biotinylated PSMA Fab on neutravidin plate, clonal phage supernatant, anti-M13 HRP detection; blocking buffer alone;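 note: before phage were added, wells were preincubated with blocking buffer either containing PSMA antigen or without it, and phage were then added with no wash in between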
Where no end group is shown, it is not given here.
endpoint: Phage binding ELISA signal, Anti-PSMA Fab

[
  {
    "binder": "TVPLCKPLWMCYGF (cysteine pairing not given here; also: fused to phage pIII, linker and order not given here, Peptide-180 library clone, tested as clonal phage supernatant; not shown: pIII filament protein of the bacteriophage, to which the peptide is fused) [Phage-3212]",
    "measurement": 1.97
  },
  {
    "binder": "LERLCQPSWMCTGF (cysteine pairing not given here; also: fused to phage pIII, linker and order not given here, Peptide-180 library clone, tested as clonal phage supernatant; not shown: pIII filament protein of the bacteriophage, to which the peptide is fused) [Phage-3204]",
    "measurement": 1.98
  },
  {
    "binder": "PEAMCRPTWMCAGF (cysteine pairing not given here; also: fused to phage pIII, linker and order not given here, Peptide-180 library clone, tested as clonal phage supernatant; not shown: pIII filament protein of the bacteriophage, to which the peptide is fused) [Phage-3211]",
    "measurement": 1.97
  },
  {
    "binder": "VTVRCEPAWMCMGF (cysteine pairing not given here; also: fused to phage pIII, linker and order not given here, Peptide-180 library clone, tested as clonal phage supernatant; not shown: pIII filament protein of the bacteriophage, to which the peptide is fused) [Phage-3199]",
    "measurement": 1.98
  }
]
